kcat: recorded values
Substrate: C[C@H](NC(=O)CCC(=O)O)C(=O)N[C@@H](C)C(=O)N1CCC[C@H]1C(=O)N[C@@H](Cc1ccccc1)C(=O)Nc1ccc([N+](=O)[O-])cc1
assay explanation: Kinetic parameters from progress curves, p-nitroanilide substrates
Assay type: biochemical, B. amyloliquefaciens
measurement parameters: other: 25° C., 0.1M tris buffer, pH 8.6
A number alone suffices; assume s⁻¹.

[[record]]
protein = "B. amyloliquefaciens subtilisin variant asp + 166 (D166, glycine+166 substituted) (Bacillus amyloliquefaciens; G273D) (protein, codons for the mature subtilisin corresponding to that secreted by the B. amyloliquefaciens; made in house; host or cells: Bacillus subtilis BG2036 (protease deficient)) AQSVPYGVSQIKAPALHSQGYTGSNVKVAVIDSGIDSSHPDLKVAGGASMVPSETNPFQDNNSHGTHVAGTVAALNNSIGVLGVAPSASLYAVKVLGADGSGQYSWIINGIEWAIANNMDVINMSLGGPSGSAALKAAVDKAVASGVVVVAAAGNEGTSGSSSTVDYPGKYPSVIAVGAVDSSNQRASFSSVGPELDVMAPGVSIQSTLPGNKYGAYNGTSMASPHVAGAAALILSKHPNWTNTQVRSSLENTTTKLGDSFYYGKGLINVQAAAQ"
metric = "kcat"
reported_value = 3

[[record]]
protein = "B. amyloliquefaciens subtilisin variant arg + 166 (glycine+166 substituted) (Bacillus amyloliquefaciens; G273R) (protein, codons for the mature subtilisin corresponding to that secreted by the B. amyloliquefaciens; made in house; host or cells: Bacillus subtilis BG2036 (protease deficient)) AQSVPYGVSQIKAPALHSQGYTGSNVKVAVIDSGIDSSHPDLKVAGGASMVPSETNPFQDNNSHGTHVAGTVAALNNSIGVLGVAPSASLYAVKVLGADGSGQYSWIINGIEWAIANNMDVINMSLGGPSGSAALKAAVDKAVASGVVVVAAAGNEGTSGSSSTVRYPGKYPSVIAVGAVDSSNQRASFSSVGPELDVMAPGVSIQSTLPGNKYGAYNGTSMASPHVAGAAALILSKHPNWTNTQVRSSLENTTTKLGDSFYYGKGLINVQAAAQ"
metric = "kcat"
reported_value = 19


Now consider the entry below.
kcat measured on B. amyloliquefaciens subtilisin variant phe + 166 (glycine+166 substituted) (Bacillus amyloliquefaciens; G273F) (protein, codons for the mature subtilisin corresponding to that secreted by the B. amyloliquefaciens; made in house; host or cells: Bacillus subtilis BG2036 (protease deficient)) AQSVPYGVSQIKAPALHSQGYTGSNVKVAVIDSGIDSSHPDLKVAGGASMVPSETNPFQDNNSHGTHVAGTVAALNNSIGVLGVAPSASLYAVKVLGADGSGQYSWIINGIEWAIANNMDVINMSLGGPSGSAALKAAVDKAVASGVVVVAAAGNEGTSGSSSTVFYPGKYPSVIAVGAVDSSNQRASFSSVGPELDVMAPGVSIQSTLPGNKYGAYNGTSMASPHVAGAAALILSKHPNWTNTQVRSSLENTTTKLGDSFYYGKGLINVQAAAQ = 3
